# assay-explanation: protease stability score; higher = more stable; yeast display proteolysis, trypsin and chymotrypsin;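 also: log10 excess protease needed over predicted unfolded state with 0 meaning unfolded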
measurement-type: protease stability score
Lab note: jot down the number only; don't add units.

Some solved cases for reference:
>>> observed_value("DEENEDIFRKYLEDLKKGDPKKLKEQFDKDAEVKVGDDVLHGRRSIARTLHEERKEMRVEIEDVKVRAHNGQLEVRFQQTVDHNGRPKTVRARMEVKFHNGRIKHLSVDERE")
-0.331
>>> observed_value("DDRHLHHRAREWAEQLKTNDEDELTKYVDPNARMRVGDKSVHGREKLQEQIHRDNERVDNVEIRSIRIENGTVNIRQVNDVNGRNDDFRVRMHIHNGQLKVNERHSP")
-0.38
>>> observed_value("DEHDEARKFADKFVKALRDGDETLVNKLVDPNAKFVIGDKDYHGRKAASTLMHEWKNRVDEQEVKIKRISVRNGRANVDVEMVMNVDGHRVHFRVIIYAERRDGRLRVVRIEAR")
1.52
>>> observed_value("DEEVERLFKRFMSAVDEGNPDELKKQIDPNAKQHIGDKTYHGRETIASRIVKRRQKMRVTWKSISITDHNGTIKVTAHAVFNHNGRPKEVQLDIEVRAHGDQMKNFRVQVRG")
0.328
>>> observed_value("DEDDANQVERDLRENDWDQLVRNFDEDARIQIGDYTIHGREDYKRWLEEVEKQVDKVEIKQVDIHGNNIVVDYRQQVNGQHVRAIMVITMDNGKIKEMHVDVRSEDAKRAYERIFR")
0.525

Form field: reported protease stability score of DEQKQRDFAHTYKDVFNTGDPDEQRKMVDPNARAQVGDNDFHGDEEFDKWAEERRDRVDHVEIRSMSVHGNKVSMDVDVVYDGRRVRFSMRMEYHNGRFKHFKVNPDSQRKLEG
0.615

* * *

# assay-explanation: protease stability score; higher = more stable; yeast display proteolysis, trypsin and chymotrypsin;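 also: log10 excess protease needed over predicted unfolded state with 0 meaning unfolded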
measurement-type: protease stability score
Lab note: jot down the number only; don't add units.

Some solved cases for reference:
>>> observed_value("DSERRQREAENFFKNLQTGNKHEFEKLFPPDVRAQVGEKEIHGREEAQKWWKNIHDRADHMQIDHFDVDGNKITFDMRMNVDGHEIRMRLTIRLENGQYRSLTAEVRDEDAERRLKS")
0.672
>>> observed_value("DEEDMKKVVKQLLEAAQNGNTEKIVQLVKKDVEFKLGDTEYRGQEDVRKVVKKLRDIGAEFHVKEYEATGGEAKVKTVWHIGDNEAHVEVKYTVEDDKVDRVEVRWSEKAQKQIKKG")
0.801
>>> observed_value("DDHANRVVEDVMQAWQDNDEDRLKELLDPNVKVEYGDRRVEGRDEAVREWVEQFRQSTIEYEIKSVNNSGDKVQINMDMRFESNGHPDENRVRLEASAHNGKIRELNFHTDQ")
0.589
>>> observed_value("DERERERQLRDIFRVIQRGDQDRWKEQADENARIHVGDTRVHGQEEARKWFKELVDRADHFSVKRIEVNGDDMILTFEVEFNGKRHTVTIDFNVQNGRIQNINVDPEAERRIRK")
0.048
>>> observed_value("DEKKYEELLREVQKYLYQGNYEEAQKVLAPNVVFEVGDYKMNGLEQVMKYYKKVKDRGAEIHVEEMEVTGHKARVVYKLHVGGRTIEVTAEVKVEDERVKKARVEVSEEYVKHVQHG")
1.61

Form field: reported protease stability score of DDHALRLVEEFLRAMRTGDEDKLKELVDPNARVTVGDHVWHGMESAAREWKRLKDEMRIKIDLQHVDDHGNSANAKASLAFRVNGKPQQNHMKMEVIFENGRIQSIVLRFSNEVEHNIKR
1.28

Form field: reported protease stability score of DEEDANNVAEQMMEIVERGDEERASELADPNAKFNIGDKKYEGRENLQKAIRHFRQRADHLEIKSLSVTPGHLKMRFVVKHNGQRNEVVIHVKAHNGKIVEIQVRNS
0.15

Form field: reported protease stability score of DEEDDKKMNELLKQIQTGNDQKVERLIDPNANMHIGNQDIHGSEDVRKWIEKITKELNITFKVNHFRVKGDKIKIKVKINVKHNGQPDSDTIDLVARVENGHFTRIELHMDEKRWKKQVS
1.15

Form field: reported protease stability score of DEKKKAEEQHKKLEHALREGDPDEAKKMMDPNVRAQVGETKFHGREQMAKFWMTFNKRADHVEFELRDLHIENGRIRIHAVVRADVNGQTVRINIRIILTKHGDQFVAVRIEQK
0.499

Form field: reported protease stability score of DETAARDVEELLTHVKTNNPENVVKLADPNAKAKIGDQTVKGREELTKQMTKELRHQRMSVEIKDYKVHGNKVVIDAEFTYNHNGRPQKKDVEIYVVFRGEKIEKFVWRTDG
0.627

Form field: reported protease stability score of DHHDRKLFKHLITALRDGDEDKVKKNVDPNVKIDIGDTTWNGREQWAKDVREKREEMRVDIKLKRLTASNGRVTAKLRVRNKHDGRPHQHEFTVEFRRSNGRWKEIHVDDDK
-0.008
